Give pIC50 for every item shown.
Target: full-length beta-Catenin (Uniprot ID P35222) (Homo sapiens (Human)) (UniProt P35222)
Test: fluorescence polarization competition; full-length beta-catenin, competitor 5FAM-TCF4(10-53)
Starred links: 1 amine or outer side, 2 acyl side, 3 side chain; linkers in the order of their positions; H or OH if unused. Positions of bridges follow the written chain, without caps; N, C: chain ends. Non-standard residues stand in square brackets, D forms with d. Primed or numbered codes have the meaning given here. PyrS2″ = (S)-3-amino-1-((pent-4-en-1-yloxy)carbonyl)pyrrolidine-3-carboxylic acid (stapling residue), C=CCCCOC(=O)N1CC[C@@](N[*:1])(C(=O)[*:2])C1; B5(5) = 2,2-bis(4-pentenyl)glycine, 2-amino-2-(pent-4-en-1-yl)hept-6-enoic acid (stitching residue), C=CCCCC(CCCC=C)(N[*:1])C(=O)[*:2]; PyrS2 = (S)-3-amino-1-((pent-4-en-1-yloxy)carbonyl)pyrrolidine-3-carboxylic acid, C=CCCCOC(=O)N1CC[C@@](N[*:1])(C(=O)[*:2])C1; B5(3) = 2,2-bis(4-pentenyl)glycine (stitching residue), C=CCCCC(CCCC=C)(N[*:1])C(=O)[*:2]; Phe(3-COOH) = N[C@@H](Cc1cccc(C(=O)O)c1)C(=O)O; Phe(2-CF3) = N[C@@H](Cc1ccccc1C(F)(F)F)C(=O)O; Phe(3-F) = N[C@@H](Cc1cccc(F)c1)C(=O)O; Bta = N[C@@H](Cc1csc2ccccc12)C(=O)O; αAllylPro = C=CC[C@@]1(C(=O)O)CCCN1; tBuAla = CC(C)(C)C[C@H](N)C(=O)O; Gly(cBu) = N[C@H](C(=O)O)C1CCC1; Nle = CCCC[C@H](N)C(=O)O
API: returns pIC50 as number; meaning -log10 of concentration in mol/L.

Lookup: Entry Ac-[αAllylPro]D[tBuAla][B5(5)]D[Phe(3-COOH)]AAFL[PyrS2][Phe(2-CF3)][Bta]QL[Nle]-NH2 (staple 1-4, 4-11) [I-2391] needs its pIC50 filled in; supply it.
Found: 6.96

Lookup: Entry Ac-[αAllylPro]D[tBuAla][B5(5)]D[Phe(3-COOH)]AAFL[PyrS2″][Phe(2-CF3)][Bta]QL[Gly(cBu)]-NH2 (staple 1-4, 4-11) [I-2388] needs its pIC50 filled in; supply it.
Found: 6.88

Lookup: Entry Ac-[αAllylPro]D[tBuAla][B5(3)]D[Phe(3-COOH)]AAFL[PyrS2″][Phe(3-F)][Bta]A-NH2 (staple 1-4, 4-11) [I-2261] needs its pIC50 filled in; supply it.
Found: 7.47

Lookup: Entry Ac-[αAllylPro]D[tBuAla][B5(5)]D[Phe(3-COOH)]AAFL[PyrS2″][Phe(2-CF3)][Bta]QLF-NH2 (staple 1-4, 4-11) [I-2381] needs its pIC50 filled in; supply it.
Found: 5.83
